test-details: RAM signaling pathway blockade in yeast – S. cerevisiae, Pdr1DBD-CYC8 efflux-inhibited sensitized strain, primary screen (AID 1298);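 also: 0% = DMSO untreated cells without growth and 100% = 10 µM 1-NA-PP1 full growth; higher means more yeast growth rescued from 5-FOA killing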
applied-conditions: S. cerevisiae cbk1-as DSE1-URA3 strain, 5-FOA growth OD615, 2 d; at 50 µM; stronger effect = higher value
So I've got a bunch of compounds here, and I need their RAM network inhibition values.
Give bare numbers, in %.

CC(=O)Nc1ccc(NC(=O)c2ccco2)cc1: 2.4
O=C(COc1ccccc1)Nc1nnc(-c2ccc(Cl)s2)o1: 1.52
CCc1nc(SCC(=O)Nc2ccc(C(=O)O)cc2)n[nH]1: -2.73
O=C(Cn1c2c(c(-c3ccccc3)cc1=O)CCCC2)N1CCCCCC1: -0.37
COc1ccc(C2C3=C(CC(c4ccco4)CC3=O)Nc3ccccc3N2C(C)=O)cc1 (centres undefined): 0.96

Would you be so kind as to report RAM network inhibition for each listed record?
1. O=C(NCc1ccccn1)C1CCN(S(=O)(=O)N2CCCC2)CC1
2. COC(=O)c1ccccc1Nc1cc(C)nc2nc(C)nn12
3. CCn1c(=O)cc(O)c2ccccc21
4. O=C(NCCN1C(=O)C2C3C=CC(C3)C2C1=O)NCc1ccccc1 (centres undefined)
5. CCn1c(SCc2nc(-c3ccccc3)no2)nc2ccccc21
6. CCCN1CCN(C(=O)CCCn2c(C)c3cnn(-c4ccccc4)c(=O)c3c2C)CC1
7. Cc1ccc(-c2nnc(SCC(=O)Nc3ccccc3F)o2)cc1

a:
3.61
1.72
1.28
1.83
1.2
3.77
5.9
